Recorded inhibition at 10 µM for the following molecules
Test system: NCI-H322M (non-small cell lung cancer)
Test: NCI-60 SRB cytotoxicity screen
Type: cell-based
Conditions: Homo sapiens, single dose 10 μM, read-out: growth inhibition (GI%)

Here's what some known entries look like.
molecule="CCc1cccc2cc(C3C=C(c4ccc(F)cc4)NC(=S)N3)c(Cl)nc12 (stereo not shown)" result="< 10%"
molecule="CCc1cccc2cc(C3C=C(c4ccc(Br)cc4)NC(=S)N3)c(Cl)nc12 (stereo not shown)" result="< 10%"
molecule=CCc1cccc2cc(-c3cc(-c4ccc(OC)c(OC)c4)[nH]c(=O)c3C#N)c(Cl)nc12 result="< 10%"

Let us examine a further case.
Input `CCc1cccc2cc(-c3cc(-c4ccc(F)cc4)[nH]c(=S)c3C#N)c(Cl)nc12` . Output inhibition at 10 µM: 12.4%
